# SUBJECT OF TEST: T1, FZD2 CRD (Homo sapiens, UniProt Q14332)
# T1 construct: D35-P161; GPI anchor signal (C); expressed in transfected cells; host or cells: CHO cells, lentiviral pLenti-puro
# ASSAY PROTOCOL: Immunofluorescence of anti-FZD5 Fab binding to CHO cells overexpressing Frizzled CRD
# Parameters: key: −: no binding; +: very weak binder; ++: weak binder; +++: good binder; ++++: very good binder
PROPERTY LABEL: Immunofluorescence binding, Frizzled CRD overexpressed on CHO cells: FZD2

MOLECULE | VALUE
Fab-2909: anti-FZD5 Fab with antibody variable region Fv-2909; CDR SEQ ID NOs: 35, 36, 48, 87, 124, 161 (antibody, V domains shown) VH: EVQLVESGGGLVQPGGSLRLSCAASGFNISSSYMHWVRQAPGKGLEWVASISSSSGYTSYADSVKGRFTISADTSKNTAYLQMNSLRAEDTAVYYCARTVRGSKKPYFSGWAMDYWGQGTLVTVSS VL: DIQMTQSPSSLSASVGDRVTITCRASQSVSSAVAWYQQKPGKAPKLLIYSASSLYSGVPSRFSGSRSGTDFTLTISSLQPEDFATYYCQQSWSYHYLITFGQGTKVEIK | −
Fab-2934: anti-FZD5 Fab with antibody variable region Fv-2934; CDR SEQ ID NOs: 35, 36, 73, 110, 149, 155 (antibody, V domains shown) VH: EVQLVESGGGLVQPGGSLRLSCAASGFNISYSYMHWVRQAPGKGLEWVASIYSSSGSTSYADSVKGRFTISADTSKNTAYLQMNSLRAEDTAVYYCARGAIDYWGQGTLVTVSS VL: DIQMTQSPSSLSASVGDRVTITCRASQSVSSAVAWYQQKPGKAPKLLIYSASSLYSGVPSRFSGSRSGTDFTLTISSLQPEDFATYYCQQWYHYGLITFGQGTKVEIK | −
Fab-2933: anti-FZD5 Fab with antibody variable region Fv-2933; CDR SEQ ID NOs: 35, 36, 72, 109, 148, 177 (antibody, V domains shown) VH: EVQLVESGGGLVQPGGSLRLSCAASGFNLYSSYMHWVRQAPGKGLEWVASIYSSYGYTSYADSVKGRFTISADTSKNTAYLQMNSLRAEDTAVYYCARTVRGSKKPYFSGWAMDYWGQGTLVTVSS VL: DIQMTQSPSSLSASVGDRVTITCRASQSVSSAVAWYQQKPGKAPKLLIYSASSLYSGVPSRFSGSRSGTDFTLTISSLQPEDFATYYCQQFWWYASWLFTFGQGTKVEIK | −
